Answer each item with its documented IC50.
Target Of Assay: 6-phosphofructo-2-kinase/fructose-2,6-bisphosphatase 3 (Homo sapiens, UniProt Q16875)
Sequence (Q16875 whole entry): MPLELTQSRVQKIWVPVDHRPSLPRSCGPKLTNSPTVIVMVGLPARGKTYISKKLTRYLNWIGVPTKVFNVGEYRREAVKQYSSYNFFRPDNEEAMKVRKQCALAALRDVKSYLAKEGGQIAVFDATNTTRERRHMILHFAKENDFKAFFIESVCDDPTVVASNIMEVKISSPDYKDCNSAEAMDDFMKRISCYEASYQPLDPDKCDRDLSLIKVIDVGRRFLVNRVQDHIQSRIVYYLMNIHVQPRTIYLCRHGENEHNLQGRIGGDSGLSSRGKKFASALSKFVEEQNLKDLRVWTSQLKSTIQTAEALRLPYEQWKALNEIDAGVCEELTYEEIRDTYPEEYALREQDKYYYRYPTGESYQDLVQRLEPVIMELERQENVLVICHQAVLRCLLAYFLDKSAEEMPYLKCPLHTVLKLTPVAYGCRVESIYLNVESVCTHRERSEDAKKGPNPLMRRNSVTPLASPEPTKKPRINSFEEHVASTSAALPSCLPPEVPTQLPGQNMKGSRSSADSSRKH
Assay Summary: Inhibition of iPFK2 (unknown origin) assessed as reduction in enzyme-mediated fructose-6-phosphate phosphorylation by measuring NADH absorbance pre-incubated for 10 mins before ATP/substrate addition followed by incubation for 1 hr by UV-Visible spectrometry based iPFK-2/PPI-PFK coupled enzyme assay

Which measured IC50 value corresponds to Cc1nc(N[C@@H]2CCCc3ccccc32)cc(-c2ccc3ncccc3c2)n1 ?
> 1000 nM

Entry Cc1nc(NC(C)c2ccc(F)c(Br)c2)cc(-c2ccc3occ(C)c3c2)n1 (centres undefined) has what IC50?
500 nM

Field request: IC50 | item: Cc1nc(NC(C)c2cccc(-c3nn[nH]n3)c2)cc(-c2ccc3ncsc3c2)n1 (centres undefined)
> 1000 nM

If you can, please state the reported IC50 value of Cc1nc(NC(C)c2cccc(NC=O)c2)cc(-c2ccc3ncsc3c2)n1 (centres undefined) .
> 1000 nM

If you can, please state the reported IC50 value of CCOC(=O)c1cncc(-c2cccc(C(C)Nc3cc(-c4ccc5ncsc5c4)nc(C)n3)c2)c1 (centres undefined) .
500 nM

// returns reported IC50 for input Cc1nc(NC(C)c2cccc(OCC(=O)N(C)C)c2)cc(-c2ccc3ncsc3c2)n1 (centres undefined)
500 nM

// returns reported IC50 for input Cc1nc(N[C@@H](C)c2ccccc2)cc(-c2ccc3ncsc3c2)n1
> 1000 nM

Could you share which IC50 value was measured for Cc1nc(N[C@@H]2CCCc3ccccc32)cc(-c2ccc(Cl)c(COC(C)C(=O)O)c2)n1 (some centres undefined) ?
500 nM

Name the reported IC50 value associated with the compound Cc1nc(NC(C)c2cccc(NC(=O)CN(C)C(=O)OC(C)(C)C)c2)cc(-c2ccc3ncsc3c2)n1 (centres undefined)
> 1000 nM

Dear colleague, I am looking for the recorded IC50 of the following compound: COc1ccc(F)c(CNc2cc(-c3ccc4ncsc4c3)nc(C)n2)c1
> 1000 nM

State the recorded IC50 for this entry: COc1cccc([C@H](C)Nc2cc(-c3cc4ccccc4o3)nc(C)n2)c1
> 1000 nM

Report IC50 for COc1cccc(-c2cc(NC(C)c3cccc(O)c3)nc(C)n2)c1F (centres undefined) please.
> 1000 nM

Please report the recorded IC50 for Cc1nc(N[C@@H](C)c2cccc(-c3cnc(N4CCCCC4)nc3)c2)cc(-c2ccc3ncsc3c2)n1 .
500 nM

What value of IC50 has been reported for the following compound? COc1ccc(-c2cc(NC(C)c3cccc(-c4cnn(C)c4)c3)nc(C)n2)c(F)c1 (centres undefined)
> 1000 nM

Name the recorded IC50 for Cc1nc(N[C@H](C)c2ccc(F)c(-c3cnn(C)c3)c2)cc(-c2ccc3occ(C)c3c2)n1 .
500 nM

For the compound shown here, COc1ccc(-c2cccc(C(C)Nc3cc(-c4ccc5ncsc5c4)nc(C)n3)c2)cn1 (centres undefined) , give the reported IC50.
500 nM

For the compound shown here, CCN(CC)c1ncc(-c2cccc([C@H](C)Nc3cc(-c4ccc5ncsc5c4)nc(C)n3)c2)cn1 , give the reported IC50.
500 nM

Look up IC50: COC(=O)COc1cccc(C(C)Nc2cc(-c3ccc4ncsc4c3)nc(C)n2)c1 (centres undefined)
> 1000 nM

Any idea what its IC50 is? The compound is Cc1nc(NC(C)c2cccc(-c3cnn(C)c3)c2)cc(-c2cc(F)c(F)c(F)c2)n1 (centres undefined)
500 nM
